System: Staphylococcus epidermidis
Test: Antibacterial activity against erythromycin-resistant Staphylococcus epidermidis 19-9 assessed as inhibition of visible bacterial growth incubated for 18 hrs by broth microdilution method
Type: functional
Measurement Type: MIC (µg/mL)

Structure Notation	Observed Measurement
CCOc1ccccc1NC(=O)OCCCN1C(=O)O[C@]2(C)[C@@H](CC)OC(=O)[C@@](C)(F)C(=O)[C@H](C)[C@@H](O[C@@H]3O[C@H](C)C[C@H](N(C)C)[C@H]3O)[C@](C)(OC)C[C@@H](C)C(=O)[C@H](C)[C@@H]12	0.5
CC[C@H]1OC(=O)[C@@](C)(F)C(=O)[C@H](C)[C@@H](O[C@@H]2O[C@H](C)C[C@H](N(C)C)[C@H]2O)[C@](C)(OC)C[C@@H](C)C(=O)[C@H](C)[C@H]2N(CCCOC(=O)Nc3ccccc3Cl)C(=O)O[C@]12C	0.25
CC[C@H]1OC(=O)[C@@](C)(F)C(=O)[C@H](C)[C@@H](O[C@@H]2O[C@H](C)C[C@H](N(C)C)[C@H]2O)[C@](C)(OC)C[C@@H](C)C(=O)[C@H](C)[C@H]2N(CCCOC(=O)Nc3cccc(Cl)c3)C(=O)O[C@]12C	0.125
CC[C@H]1OC(=O)[C@@](C)(F)C(=O)[C@H](C)[C@@H](O[C@@H]2O[C@H](C)C[C@H](N(C)C)[C@H]2O)[C@](C)(OC)C[C@@H](C)C(=O)[C@H](C)[C@H]2N(CCCOC(=O)Nc3c(C)noc3C)C(=O)O[C@]12C	0.5
CC[C@H]1OC(=O)[C@@](C)(F)C(=O)[C@H](C)[C@@H](O[C@@H]2O[C@H](C)C[C@H](N(C)C)[C@H]2O)[C@](C)(OC)C[C@@H](C)C(=O)[C@H](C)[C@H]2N(CCCOC(=O)Nc3ccc(SC)cc3)C(=O)O[C@]12C	0.25
CC[C@H]1OC(=O)[C@H](C)C(=O)[C@H](C)[C@@H](O[C@@H]2O[C@H](C)C[C@H](N(C)C)[C@H]2O)[C@](C)(OC)C[C@@H](C)C(=O)[C@H](C)[C@H]2N(CCCOC(=O)Nc3ccc(C(F)(F)F)cc3)C(=O)O[C@]12C	0.5
CC[C@H]1OC(=O)[C@@](C)(F)C(=O)[C@H](C)[C@@H](O[C@@H]2O[C@H](C)C[C@H](N(C)C)[C@H]2O)[C@](C)(OC)C[C@@H](C)C(=O)[C@H](C)[C@H]2N(CCCOC(=O)Nc3ccc4sccc4c3)C(=O)O[C@]12C	1
CC[C@H]1OC(=O)[C@H](C)C(=O)[C@H](C)[C@@H](O[C@@H]2O[C@H](C)C[C@H](N(C)C)[C@H]2O)[C@](C)(OC)C[C@@H](C)C(=O)[C@H](C)[C@H]2N(CCCOC(=O)Nc3ccc(C)cc3)C(=O)O[C@]12C	0.5

----------
Assay: Metabolic stability in human liver microsome assessed as half life measured at 60 mins by LC-MS/MS analysis
Type: ADME
Settings: liver microsomes
Measurement Type: log10 half-life (log10 of the value in min)

Structure Notation	Observed Measurement
CC[C@H]1OC(=O)[C@@](C)(F)C(=O)[C@H](C)[C@@H](O[C@@H]2O[C@H](C)C[C@H](N(C)C)[C@H]2O)[C@](C)(OC)C[C@@H](C)C(=O)[C@H](C)[C@H]2N(CCCOC(=O)Nc3c(C)noc3C)C(=O)O[C@]12C	1.57
CC[C@H]1OC(=O)[C@@](C)(F)C(=O)[C@H](C)[C@@H](O[C@@H]2O[C@H](C)C[C@H](N(C)C)[C@H]2O)[C@](C)(OC)C[C@@H](C)C(=O)[C@H](C)[C@H]2N(CCCOC(=O)Nc3ccccc3C)C(=O)O[C@]12C	2.25
CC[C@H]1OC(=O)[C@@](C)(F)C(=O)[C@H](C)[C@@H](O[C@@H]2O[C@H](C)C[C@H](N(C)C)[C@H]2O)[C@](C)(OC)C[C@@H](C)C(=O)[C@H](C)[C@H]2N(CCCOC(=O)Nc3cccc(C)c3)C(=O)O[C@]12C	0.72
CC[C@H]1OC(=O)[C@@](C)(F)C(=O)[C@H](C)[C@@H](O[C@@H]2O[C@H](C)C[C@H](N(C)C)[C@H]2O)[C@](C)(OC)C[C@@H](C)C(=O)[C@H](C)[C@H]2N(CCCOC(=O)Nc3ccc(F)cc3)C(=O)O[C@]12C	0.58
CC[C@H]1OC(=O)[C@@](C)(F)C(=O)[C@H](C)[C@@H](O[C@@H]2O[C@H](C)C[C@H](N(C)C)[C@H]2O)[C@](C)(OC)C[C@@H](C)C(=O)[C@H](C)[C@H]2N(CCCOC(=O)Nc3ccc4c(c3)CCO4)C(=O)O[C@]12C	0.30
